Each entry below carries its reported TGI.
System: SNB-75 CNS
Test: NCI tumour cell line growth inhibition, 48 h
measurementName: TGI

[[record]]
molecule = "COC(=O)c1c(C(=O)OC)c2cc(C(=O)c3ccccc3)ccn2c1Cl"
measurementname = "TGI"
result = "55.4 µM"

[[record]]
molecule = "O=C(Cc1ccccc1)c1ccc2[nH]c(=O)oc2c1"
measurementname = "TGI"
result = "33.4 µM"

[[record]]
molecule = "CC(C)CCC[C@@H](C)C1CCC2[C@@H]3CCC4CC(CCC=C(c5cc(Cl)c(OC(=O)c6ccccc6)c(C(=O)O)c5)c5cc(Cl)c(OC(=O)c6ccccc6)c(C(=O)O)c5)CC[C@]4(C)C3CC[C@@]21C (some centres not stated)"
measurementname = "TGI"
result = "> 100 µM"

[[record]]
molecule = "CCOC(CN=c1nc(N(C)C)ss1)OCC"
measurementname = "TGI"
result = "78.4 µM"

[[record]]
molecule = "O=C1c2ccccc2-c2ccc(N=[N+]([O-])c3ccc4c(c3)C(=O)c3ccccc3-4)cc21"
measurementname = "TGI"
result = "> 100 µM"

[[record]]
molecule = "Cn1c(=O)c2[nH]c(CS(=O)(=O)Cc3nc4c([nH]3)c(=O)n(C)c(=O)n4C)nc2n(C)c1=O"
measurementname = "TGI"
result = "> 100 µM"

[[record]]
molecule = "COC1OC(CO)C(O)C(OC(=O)c2cc(O)c(O)c(O)c2)C1OC(=O)c1cc(O)c(O)c(O)c1 (configuration not stated)"
measurementname = "TGI"
result = "> 100 µM"

[[record]]
molecule = "CC1N(C)C(=O)OC12CCN(CCCC(=O)c1ccc(F)cc1)CC2 (configuration not stated)"
measurementname = "TGI"
result = "> 100 µM"

[[record]]
molecule = "CC(=O)Nc1ccc(C2[C@H]3C(=O)N(c4ccc(Cc5ccc(N6C(=O)[C@@H]7ON(c8ccccc8)C(c8ccc(NC(C)=O)cc8)[C@@H]7C6=O)cc5)cc4)C(=O)[C@H]3ON2c2ccccc2)cc1 (some centres not stated)"
measurementname = "TGI"
result = "> 100 µM"

[[record]]
molecule = "COC(=O)/C(=C\\c1c(C)[nH]c2ccccc12)S(=O)(=O)c1ccccc1"
measurementname = "TGI"
result = "14.6 µM"

[[record]]
molecule = "O=C1OC2(c3ccccc3Oc3ccccc32)c2ccccc21"
measurementname = "TGI"
result = "> 100 µM"

[[record]]
molecule = "O=C1CCC2SC1CCC2=O"
measurementname = "TGI"
result = "> 100 µM"


* * *

System: A498 renal
Experiment: NCI tumour cell line growth inhibition, 48 h
Each entry below carries its reported TGI.
measurementName: TGI

[[record]]
compound = "CC(O)C(O)C(N)CC=O (stereo not drawn)"
measuredtarget = "A498 renal"
measurementname = "TGI"
result = "> 50 µM"

[[record]]
compound = "O=C1/C(=C\\c2cccc(Oc3ccccc3)c2)SC(c2ccccc2)N1c1ccc(Cl)cc1 (stereo not drawn)"
measuredtarget = "A498 renal"
measurementname = "TGI"
result = "> 100 µM"

[[record]]
compound = "CCOP(=O)(OCC)/C(C#N)=C/c1ccco1"
measuredtarget = "A498 renal"
measurementname = "TGI"
result = "> 100 µM"

[[record]]
compound = "CCN(CC)CCS(=O)c1c2cc(OC)ccc2nc2ccc(OC)cc12 (stereo not drawn)"
measuredtarget = "A498 renal"
measurementname = "TGI"
result = "33.1 µM"

[[record]]
compound = "O=C(O)C12C3CCCC1C2CC3 (stereo not drawn)"
measuredtarget = "A498 renal"
measurementname = "TGI"
result = "> 100 µM"

[[record]]
compound = "C[N+]1(C)CCC(C#N)(c2ccccc2)CC1"
measuredtarget = "A498 renal"
measurementname = "TGI"
result = "> 100 µM"

[[record]]
compound = "O=C(O)C1CC(c2ccccc2)=NN1c1ccccc1 (stereo not drawn)"
measuredtarget = "A498 renal"
measurementname = "TGI"
result = "> 100 µM"

[[record]]
compound = "Nc1nc(SCc2ccccc2)c2ncn(Cc3ccccc3)c2n1"
measuredtarget = "A498 renal"
measurementname = "TGI"
result = "> 65.9 µM"

[[record]]
compound = "COc1ccc2c3ccc4c(c3n(C)c2c1)C(=O)c1ccccc1C4=O"
measuredtarget = "A498 renal"
measurementname = "TGI"
result = "> 100 µM"

[[record]]
compound = "CC(=O)OC1COC(n2c(N)c(C#N)c(C)c(C#N)c2=S)C(OC(C)=O)C1OC(C)=O (stereo not drawn)"
measuredtarget = "A498 renal"
measurementname = "TGI"
result = "> 100 µM"

[[record]]
compound = "COc1ccc(-c2nc(-c3cn(C)c4ncccc34)cs2)cc1"
measuredtarget = "A498 renal"
measurementname = "TGI"
result = "93.9 µM"

[[record]]
compound = "[N-]=[N+]=NC1C(Br)C(=O)NC(=O)N1[C@H]1C[C@H](O)[C@@H](CO)O1 (stereo partly drawn)"
measuredtarget = "A498 renal"
measurementname = "TGI"
result = "> 100 µM"

[[record]]
compound = "O=C1C=Cc2ccccc2/C1=C/c1[nH]c(=O)[nH]c1O"
measuredtarget = "A498 renal"
measurementname = "TGI"
result = "10.6 µM"

[[record]]
compound = "O=C(O)CN1CCN(CC(=O)O)CCN(CC(=O)O)CCN(CC(=O)O)CC1"
measuredtarget = "A498 renal"
measurementname = "TGI"
result = "> 100 µM"

[[record]]
compound = "O=C1N=C(c2ccccc2)O/C1=C\\c1ccccc1"
measuredtarget = "A498 renal"
measurementname = "TGI"
result = "> 100 µM"

[[record]]
compound = "C[C@]12CC(c3ccccc3O1)C(C(=O)NC13CC4CC(CC(C4)C1)C3)C(=O)N2 (stereo partly drawn)"
measuredtarget = "A498 renal"
measurementname = "TGI"
result = "> 100 µM"

[[record]]
compound = "O=S1(=O)C[C@@H](O)[C@H](O)CS1"
measuredtarget = "A498 renal"
measurementname = "TGI"
result = "> 100 µM"

[[record]]
compound = "CCC(=O)COc1ccc(NC(NC(=O)C(C(F)(F)F)C(F)(F)F)(C(F)(F)F)C(F)(F)F)cc1"
measuredtarget = "A498 renal"
measurementname = "TGI"
result = "> 100 µM"

[[record]]
compound = "Cc1cc2oc(=O)[nH]c(=S)c2c(C)c1C"
measuredtarget = "A498 renal"
measurementname = "TGI"
result = "> 100 µM"

[[record]]
compound = "COC12C=CC(CC1)C1C(=O)c3c(C)c(C)n(C)c3C(=O)C12 (stereo not drawn)"
measuredtarget = "A498 renal"
measurementname = "TGI"
result = "> 100 µM"

[[record]]
compound = "C=C1C(=O)OC2CC3(CO3)C3C(O)C(O)CC3(C)CC12 (stereo not drawn)"
measuredtarget = "A498 renal"
measurementname = "TGI"
result = "64.2 µM"

[[record]]
compound = "S=C1N(c2ccc(Cl)cc2)C2=C(N=Nc3ccccc3)C(=Nc3ccccc3S2)N1c1ccccn1"
measuredtarget = "A498 renal"
measurementname = "TGI"
result = "17.2 µM"

[[record]]
compound = "c1ccc(N=C2c3ccccc3C3=NCCCN32)cc1"
measuredtarget = "A498 renal"
measurementname = "TGI"
result = "> 100 µM"

[[record]]
compound = "CCOC(=O)CC[C@@H](NC(=O)c1ccc(N[C@@H]2c3cc4c(cc3C(c3cc(OC)c(O)c(OC)c3)C3C(=O)OC[C@@H]32)OCO4)cc1)C(=O)OCC (stereo partly drawn)"
measuredtarget = "A498 renal"
measurementname = "TGI"
result = "0.0668 µM"

[[record]]
compound = "CC(=O)N1c2ccccc2Sc2cc(C(O)(C(F)(F)F)C(F)(F)F)ccc21"
measuredtarget = "A498 renal"
measurementname = "TGI"
result = "> 10 µM"

[[record]]
compound = "c1ccc2sc(C3(N4CCCCC4)CCCC3)cc2c1"
measuredtarget = "A498 renal"
measurementname = "TGI"
result = "25.7 µM"

[[record]]
compound = "Cc1ccc(S(=O)(=O)NNC(=S)Nc2cccc3ccccc23)cc1"
measuredtarget = "A498 renal"
measurementname = "TGI"
result = "99.5 µM"

[[record]]
compound = "CC1N(C)C(=O)OC12CCN(CCCC(=O)c1ccc(F)cc1)CC2 (stereo not drawn)"
measuredtarget = "A498 renal"
measurementname = "TGI"
result = "> 100 µM"

[[record]]
compound = "O=C1CC2(CCC(O)(c3ccc(Cl)cc3)C(C(=O)c3ccc(Cl)cc3)C2)C(=O)c2ccccc2N1 (stereo not drawn)"
measuredtarget = "A498 renal"
measurementname = "TGI"
result = "52.6 µM"

[[record]]
compound = "CCCNC(=S)/N=C\\c1c(O)c2ccccc2oc1=O"
measuredtarget = "A498 renal"
measurementname = "TGI"
result = "> 100 µM"

[[record]]
compound = "C/C=C(\\C)C(=O)O[C@H]1C=CC(=O)O[C@H]1CNC(=O)[C@H](C)O"
measuredtarget = "A498 renal"
measurementname = "TGI"
result = "43.7 µM"

[[record]]
compound = "O=[N+]([O-])/C=C/c1c[nH]c2ccccc12"
measuredtarget = "A498 renal"
measurementname = "TGI"
result = "31.2 µM"

[[record]]
compound = "CCSc1nc(N=Cc2cccs2)c2cn[nH]c2n1"
measuredtarget = "A498 renal"
measurementname = "TGI"
result = "38.1 µM"

[[record]]
compound = "N#CS/C(Cl)=C(/C(Cl)=C(Cl)Cl)[N+](=O)[O-]"
measuredtarget = "A498 renal"
measurementname = "TGI"
result = "> 100 µM"

[[record]]
compound = "COc1cc2[nH]c(-c3cccc(N(C)C)c3)cc(=O)c2cc1OC"
measuredtarget = "A498 renal"
measurementname = "TGI"
result = "> 100 µM"

[[record]]
compound = "CC(C)(O)C1OCC(C2CCC3(C)C4=CCC5C(C)(C)C(O)CCC5(C)C4CCC23C)CC1O (stereo not drawn)"
measuredtarget = "A498 renal"
measurementname = "TGI"
result = "30.4 µM"

[[record]]
compound = "CS(=O)c1ccc(COP(N)(=O)N(CCCl)CCCl)cc1 (stereo not drawn)"
measuredtarget = "A498 renal"
measurementname = "TGI"
result = "> 100 µM"

[[record]]
compound = "N#C/C=C1\\C=CC(O)C(O)C1OC1OC(CO)C(O)C(O)C1O (stereo not drawn)"
measuredtarget = "A498 renal"
measurementname = "TGI"
result = "> 100 µM"

[[record]]
compound = "COc1cccc(-c2nc3c(C(=O)NCCN(C)C)cccc3[nH]2)c1"
measuredtarget = "A498 renal"
measurementname = "TGI"
result = "32.1 µM"

[[record]]
compound = "CC(=O)O[C@H]1C(=O)[C@@]2(C)[C@H]([C@H](OC(=O)C3CCCCC3)[C@]3(O)C[C@H](OC(=O)[C@H](O)[C@@H](NC(=O)C4CCCCC4)C4CCCCC4)C(C)=C1C3(C)C)[C@]1(OC(C)=O)CO[C@@H]1C[C@@H]2O"
measuredtarget = "A498 renal"
measurementname = "TGI"
result = "6.6 µM"

[[record]]
compound = "CCC1(N=[N+]=[N-])C(=O)Nc2cc(C)ccc2C1=O (stereo not drawn)"
measuredtarget = "A498 renal"
measurementname = "TGI"
result = "> 100 µM"

[[record]]
compound = "C[C@]12CCC(=O)C(O)=C1CC[C@@H]1[C@@H]2CC[C@]2(C)C(=O)CC[C@@H]12"
measuredtarget = "A498 renal"
measurementname = "TGI"
result = "> 100 µM"

[[record]]
compound = "CCOC(=O)c1ccc(C(=O)/C(C#N)=C2\\CCCN2)[nH]1"
measuredtarget = "A498 renal"
measurementname = "TGI"
result = "> 100 µM"

